Entry source: ChEMBL document CHEMBL4002546

Assay: Cytotoxicity against African green monkey BGM cells assessed as lethality after 24 hrs by neutral red dye based assay
Type: cell-based
Settings: chlorocebus aethiops, read-out: MLD50
quantity: CC50 at 24 h (µM)
Answers are plain numbers, in µM.

Completed entries (count: 8):
| molecular string | CC50 at 24 h, µM |
| --- | --- |
| Cc1cc(Nc2ccc3ccccc3c2)n2nc(C(F)(F)F)nc2n1 | 425 |
| Cc1cc2nc(C(F)(F)F)cc(Nc3ccc4ccccc4c3)n2n1 | 2340 |
| Cc1cc(Nc2ccccc2)n2nc(C)cc2n1 | 315 |
| Cc1cc2nc(C(F)(F)F)cc(Nc3ccccc3)n2n1 | 261 |
| Cc1cc(Nc2ccc(Cl)cc2)n2nc(C)cc2n1 | 566 |
| COc1cc(Nc2cc(C)nc3cc(C)nn23)cc(OC)c1 | 188 |
| Cc1cc(Nc2ccc(C(F)(F)F)cc2)n2nc(C(F)(F)F)cc2n1 | 108 |
| Cc1cc(Nc2ccc(C(F)(F)F)cc2)n2nc(C)cc2n1 | 85 |

// for each molecule in input: emit CC50 at 24 h
1. Cc1cc(Nc2ccccc2C(F)(F)F)n2nc(C(F)(F)F)cc2n1
2. Cc1cc(Nc2ccc(Cl)cc2)n2nc(C(F)(F)F)cc2n1

1: 228; 2: 67.5

I have this molecule here, `COc1cc(Nc2cc(C)nc3cc(C(F)(F)F)nn23)cc(OC)c1` , and I need its recorded CC50 at 24 h. 256

----------
System: Plasmodium falciparum
Test: Inhibition of N-terminally truncated Plasmodium falciparum SUMO-tagged DHODH (159 to 569 residues) expressed in Escherichia coli BL21(DE3) assessed as residual activity at 50 uM using L-dihydroorotate as substrate by DCIP-based colorimetric assay relative to control
quantity: Activity (%)
One number for each entry, in %.

Completed entries (count: 3):
| molecular string | experimental system | quantity | readout units | data value |
| --- | --- | --- | --- | --- |
| Cc1cc(Nc2ccc(Cl)cc2)n2nc(C(F)(F)F)cc2n1 | Plasmodium falciparum | Activity | % | 52 |
| Cc1cc2nc(C(F)(F)F)cc(Nc3ccc4ccccc4c3)n2n1 | Plasmodium falciparum | Activity | % | 60 |
| Cc1cc(Nc2ccc3ccccc3c2)n2nc(C(F)(F)F)nc2n1 | Plasmodium falciparum | Activity | % | 37 |

// for each molecule in input: emit Activity
1. Cc1cc(Nc2ccccc2C(F)(F)F)n2nc(C(F)(F)F)cc2n1
2. Cc1cc(Nc2ccccc2)n2nc(C)cc2n1
3. COc1cc(Nc2cc(C)nc3cc(C)nn23)cc(OC)c1

[48, 66, 42]

----------
Assay: Selectivity index, ratio of MLD50 for african green monkey BGM cells to IC50 for chloroquine-resistant Plasmodium falciparum W2 infected in human A+ erythrocytes by SYBR Green based fluorescence assay
Assay type: toxicity, cell-based
quantity: selectivity ratio
Numbers only.

Completed entries (count: 3):
| molecular string | selectivity ratio |
| --- | --- |
| Cc1cc2nc(C(F)(F)F)cc(Nc3ccccc3)n2n1 | 15.2 |
| Cc1cc2nc(C(F)(F)F)cc(Nc3ccc4ccccc4c3)n2n1 | 234 |
| Cc1cc(Nc2ccc3ccccc3c2)n2nc(C)cc2n1 | 79.6 |

Now turn to the next molecule.
I have this molecule here, `Cc1cc(Nc2ccc3ccccc3c2)n2nc(C(F)(F)F)cc2n1` , and I need its recorded selectivity ratio. 468
